Exercise: state measured hERG current change (%, negative = inhibition) at 10uM for each of the molecules provided.
molecular target: human ether-à-go-go-related gene (hERG) potassium channel (human); assay: primary screen, population patch clamp on CHO cells stably expressing hERG; higher = less effect of the substance
Sequence (Q12809 whole entry, looked up): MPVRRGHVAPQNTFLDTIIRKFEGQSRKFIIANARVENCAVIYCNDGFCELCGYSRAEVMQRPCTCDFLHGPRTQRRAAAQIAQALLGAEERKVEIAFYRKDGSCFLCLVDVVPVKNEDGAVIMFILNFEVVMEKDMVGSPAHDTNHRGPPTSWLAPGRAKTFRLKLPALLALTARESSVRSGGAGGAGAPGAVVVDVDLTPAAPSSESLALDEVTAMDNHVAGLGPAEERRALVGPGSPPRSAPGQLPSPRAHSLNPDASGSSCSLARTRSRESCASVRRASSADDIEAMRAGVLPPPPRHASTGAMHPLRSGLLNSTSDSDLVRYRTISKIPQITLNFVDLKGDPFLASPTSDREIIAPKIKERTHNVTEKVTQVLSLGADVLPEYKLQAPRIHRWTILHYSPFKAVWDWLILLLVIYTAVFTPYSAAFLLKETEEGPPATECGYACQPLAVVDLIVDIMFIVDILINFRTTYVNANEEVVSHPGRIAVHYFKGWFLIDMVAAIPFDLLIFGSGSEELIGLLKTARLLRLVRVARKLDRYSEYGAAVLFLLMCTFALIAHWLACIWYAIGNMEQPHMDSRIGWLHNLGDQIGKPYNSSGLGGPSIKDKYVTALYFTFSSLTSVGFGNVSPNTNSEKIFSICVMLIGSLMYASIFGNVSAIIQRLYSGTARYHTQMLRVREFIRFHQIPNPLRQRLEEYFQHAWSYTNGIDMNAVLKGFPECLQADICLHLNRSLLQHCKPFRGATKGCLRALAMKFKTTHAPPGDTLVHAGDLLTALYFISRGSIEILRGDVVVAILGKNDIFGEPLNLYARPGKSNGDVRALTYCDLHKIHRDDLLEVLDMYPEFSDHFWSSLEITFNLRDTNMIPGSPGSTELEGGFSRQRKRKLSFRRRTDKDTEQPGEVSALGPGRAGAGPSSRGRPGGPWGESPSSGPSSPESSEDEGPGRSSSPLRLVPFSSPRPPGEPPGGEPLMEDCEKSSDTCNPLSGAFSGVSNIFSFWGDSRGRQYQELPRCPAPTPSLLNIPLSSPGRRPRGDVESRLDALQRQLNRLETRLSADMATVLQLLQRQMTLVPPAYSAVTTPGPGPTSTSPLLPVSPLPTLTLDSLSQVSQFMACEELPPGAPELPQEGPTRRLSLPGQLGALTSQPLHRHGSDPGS
Among all 310,000 compounds or so, about 14,000 (4.5%) showed an effect of 50% or more. Effects have a minus sign here. For the sample, strong results were picked, then their nearest neighbours and some compounds at random.
Answer format: numeric, % implied, no suffix.

-- ask Request - read-out hERG current change (%, negative = inhibition) at 10uM | tested on human ether-à-go-go-related gene (hERG) potassium channel (human) | molecule `CC(C)(C)NC(=O)c1cc(-c2ccccc2)n[nH]1`
-- reply 11.5

-- ask Request - read-out hERG current change (%, negative = inhibition) at 10uM | tested on human ether-à-go-go-related gene (hERG) potassium channel (human) | molecule `O=C(c1ccc(COc2ccccc2Cl)o1)N1CCN(c2ccccc2)CC1`
-- reply -24.1

-- ask Request - read-out hERG current change (%, negative = inhibition) at 10uM | tested on human ether-à-go-go-related gene (hERG) potassium channel (human) | molecule `CN(C)S(=O)(=O)c1ccc2c(c1)C(=NO)c1cc(S(=O)(=O)N(C)C)ccc1-2`
-- reply 14.7

-- ask Request - read-out hERG current change (%, negative = inhibition) at 10uM | tested on human ether-à-go-go-related gene (hERG) potassium channel (human) | molecule `CCOC(=O)Cc1cc(=O)n2[nH]c(-c3ccccc3)c(-c3ccccc3)c2n1`
-- reply -18

-- ask Request - read-out hERG current change (%, negative = inhibition) at 10uM | tested on human ether-à-go-go-related gene (hERG) potassium channel (human) | molecule `CCN(CC(=O)NCc1ccc(F)cc1)C(=O)CCNS(=O)(=O)c1cccc(C)c1`
-- reply -51.9

-- ask Request - read-out hERG current change (%, negative = inhibition) at 10uM | tested on human ether-à-go-go-related gene (hERG) potassium channel (human) | molecule `CN1CCN(c2ncnc3nc[nH]c23)CC1`
-- reply 18.5

-- ask Request - read-out hERG current change (%, negative = inhibition) at 10uM | tested on human ether-à-go-go-related gene (hERG) potassium channel (human) | molecule `O=C(CN1C(=O)c2cccnc2Oc2ccc(Cl)cc21)NC1CCCCC1`
-- reply -13.1

-- ask Request - read-out hERG current change (%, negative = inhibition) at 10uM | tested on human ether-à-go-go-related gene (hERG) potassium channel (human) | molecule `O=C1CC2(CCCCCC2)Oc2ccc(Cl)cc21`
-- reply 9.01

-- ask Request - read-out hERG current change (%, negative = inhibition) at 10uM | tested on human ether-à-go-go-related gene (hERG) potassium channel (human) | molecule `O=[N+]([O-])c1ccccc1/C=C/C=N/n1c(-c2ccc(Cl)cc2)n[nH]c1=S`
-- reply 17.5

-- ask Request - read-out hERG current change (%, negative = inhibition) at 10uM | tested on human ether-à-go-go-related gene (hERG) potassium channel (human) | molecule O=C(CSc1ncnc2c1cnn2-c1ccc(F)cc1)NCC1CCCO1 (centres unmarked)
-- reply 13.7

-- ask Request - read-out hERG current change (%, negative = inhibition) at 10uM | tested on human ether-à-go-go-related gene (hERG) potassium channel (human) | molecule CCN1CC2([N+](=O)[O-])CC=C(Cl)C([N+](=O)[O-])(C1)C2 (centres unmarked)
-- reply 13.9

-- ask Request - read-out hERG current change (%, negative = inhibition) at 10uM | tested on human ether-à-go-go-related gene (hERG) potassium channel (human) | molecule `Cc1cccc(OCCCOc2cccc3cccnc23)c1C`
-- reply 10.4

-- ask Request - read-out hERG current change (%, negative = inhibition) at 10uM | tested on human ether-à-go-go-related gene (hERG) potassium channel (human) | molecule `CCN(Cc1ccccc1)C(=O)COc1ccccc1`
-- reply 9.21

-- ask Request - read-out hERG current change (%, negative = inhibition) at 10uM | tested on human ether-à-go-go-related gene (hERG) potassium channel (human) | molecule CN=C1SC(C(=O)O)CC(=O)N1C (centres unmarked)
-- reply 19.1

-- ask Request - read-out hERG current change (%, negative = inhibition) at 10uM | tested on human ether-à-go-go-related gene (hERG) potassium channel (human) | molecule `COc1ccc(S(=O)(=O)N2CCN(C(=O)[C@H](Cc3ccccc3)NC(=O)c3ccco3)CC2)cc1`
-- reply -28.6

-- ask Request - read-out hERG current change (%, negative = inhibition) at 10uM | tested on human ether-à-go-go-related gene (hERG) potassium channel (human) | molecule CCOC(=O)C1=NN(c2ccc(Cl)cc2)C(c2ccccc2)CC1=O (centres unmarked)
-- reply -5.12

-- ask Request - read-out hERG current change (%, negative = inhibition) at 10uM | tested on human ether-à-go-go-related gene (hERG) potassium channel (human) | molecule COc1cccc(C2NC(=O)NC(C)=C2C(=O)Nc2ccc(C)cc2)c1OC (centres unmarked)
-- reply -6.16

-- ask Request - read-out hERG current change (%, negative = inhibition) at 10uM | tested on human ether-à-go-go-related gene (hERG) potassium channel (human) | molecule `Cc1ccc(-c2csc(N(Cc3ccco3)C(=O)c3cccs3)n2)cc1`
-- reply 11.6

-- ask Request - read-out hERG current change (%, negative = inhibition) at 10uM | tested on human ether-à-go-go-related gene (hERG) potassium channel (human) | molecule `O=C(NCc1ccc(F)cc1)c1cc2ccccc2o1`
-- reply -13.4

-- ask Request - read-out hERG current change (%, negative = inhibition) at 10uM | tested on human ether-à-go-go-related gene (hERG) potassium channel (human) | molecule CC(C)=CCCC(C)NC(=O)NC1CCCCC1 (centres unmarked)
-- reply -3.64

-- ask Request - read-out hERG current change (%, negative = inhibition) at 10uM | tested on human ether-à-go-go-related gene (hERG) potassium channel (human) | molecule c1ccc(CCc2nn3c(C4COc5ccccc5O4)nnc3s2)cc1 (centres unmarked);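 further: peak tail current of the secondary pulse compared with the same well before compound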
-- reply -1.79

-- ask Request - read-out hERG current change (%, negative = inhibition) at 10uM | tested on human ether-à-go-go-related gene (hERG) potassium channel (human) | molecule O=C(c1ccc(CS(=O)Cc2ccc(Cl)cc2)o1)N1CCN(c2ccc(F)cc2)CC1 (centres unmarked);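 further: peak tail current of the secondary pulse compared with the same well before compound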
-- reply -62.1

-- ask Request - read-out hERG current change (%, negative = inhibition) at 10uM | tested on human ether-à-go-go-related gene (hERG) potassium channel (human) | molecule O=C(c1cccs1)N(CC1CCCO1)c1nc(-c2ccccc2)cs1 (centres unmarked);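 further: peak tail current of the secondary pulse compared with the same well before compound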
-- reply 2.57

###

Exercise: state measured hERG current change (%, negative = inhibition) at 10uM for each of the compounds provided.
target: human ether-à-go-go-related gene (hERG) potassium channel (human); experiment: primary screen, population patch clamp on CHO cells stably expressing hERG; higher = less effect of the substance;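 further: peak tail current of the secondary pulse compared with the same well before compound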
Among all 310,000 compounds or so, about 14,000 (4.5%) showed an effect of 50% or more. The effect is printed as a negative number. This excerpt belongs to a sample that is enriched for strong results.
Answer format: numeric, % implied, no suffix.

-- ask // lookup hERG current change (%, negative = inhibition) at 10uM for `COc1cc(C(c2c(C)[nH][nH]c2=O)c2c(C)[nH][nH]c2=O)ccc1OC(=O)c1cccc([N+](=O)[O-])c1`
-- reply 10.4

-- ask // lookup hERG current change (%, negative = inhibition) at 10uM for `CCCOc1ccc(C(=O)Nc2cccnc2)cc1`
-- reply 3.01

-- ask // lookup hERG current change (%, negative = inhibition) at 10uM for Cc1ccc(C(C)NC(=O)C23CC4CC(CC(C4)C2)C3)cc1 (centres unmarked)
-- reply 11.4

-- ask // lookup hERG current change (%, negative = inhibition) at 10uM for `O=C(CN1CCN(S(=O)(=O)c2ccc(Br)cc2)CC1)Nc1ccc(F)cc1`
-- reply -67.8

-- ask // lookup hERG current change (%, negative = inhibition) at 10uM for `Cc1cc(C)n(-c2nncn2/N=C/c2ccccc2F)n1`
-- reply 3.06

-- ask // lookup hERG current change (%, negative = inhibition) at 10uM for `Cc1cc(NC(=O)CN2CCN(S(=O)(=O)c3ccc(Cl)cc3)CC2)no1`
-- reply -15.4

-- ask // lookup hERG current change (%, negative = inhibition) at 10uM for `C#CCNc1ccncc1S(=O)(=O)NC(=O)NC(C)C.O=[N+]([O-])O`
-- reply -1.14

-- ask // lookup hERG current change (%, negative = inhibition) at 10uM for `CC(C)c1ccc(S(=O)(=O)N2CCN(CC(=O)Nc3ccc(Cl)cc3F)CC2)cc1`
-- reply -15.9

-- ask // lookup hERG current change (%, negative = inhibition) at 10uM for `NS(=O)(=O)c1ccc(CCNC(=O)CNS(=O)(=O)c2cccc(Br)c2)cc1`
-- reply 13.2

-- ask // lookup hERG current change (%, negative = inhibition) at 10uM for `COC(=O)c1nnn(-c2nonc2N)c1CN1CCc2ccccc21`
-- reply 4.57

-- ask // lookup hERG current change (%, negative = inhibition) at 10uM for `Cc1ccccc1NC(=O)Cn1c(C)nc2ccc(N)cc2c1=O`
-- reply 7.11

-- ask // lookup hERG current change (%, negative = inhibition) at 10uM for `O=C(O)CCCC(=O)N1CCN(c2cccc(Cl)c2)CC1`
-- reply 2.98

-- ask // lookup hERG current change (%, negative = inhibition) at 10uM for CC(C)C(OC(=O)c1ccco1)C(=O)NCc1cccs1 (centres unmarked)
-- reply -0.362

-- ask // lookup hERG current change (%, negative = inhibition) at 10uM for CCC(C)N1C(=O)CCC1C(=O)N1CCN(c2ccc(F)cc2)CC1 (centres unmarked)
-- reply -28.3

-- ask // lookup hERG current change (%, negative = inhibition) at 10uM for O=C(O)C1C2C=CC(C3CC23)C1C(=O)O (centres unmarked)
-- reply 10.6

-- ask // lookup hERG current change (%, negative = inhibition) at 10uM for `COCCOc1cc(NC(=O)c2cccc(OC)c2)c(Cl)cc1Cl`
-- reply 6.22

-- ask // lookup hERG current change (%, negative = inhibition) at 10uM for `COC(=O)c1ccc(NC(=O)CN2CCN(S(=O)(=O)c3ccc(Br)cc3)CC2)cc1`
-- reply -31.4

-- ask // lookup hERG current change (%, negative = inhibition) at 10uM for `O=C(CCC(=O)N1CCN(c2cccc(Cl)c2)CC1)N1CCN(c2ccccc2)CC1`
-- reply -55.6

-- ask // lookup hERG current change (%, negative = inhibition) at 10uM for `Cc1cc(C)n(C(=O)c2cc(F)c(F)cc2C)n1`
-- reply 4.1

-- ask // lookup hERG current change (%, negative = inhibition) at 10uM for `O=C(O)CCC(=O)N1CCN(c2cccc(Cl)c2)CC1`
-- reply 12

-- ask // lookup hERG current change (%, negative = inhibition) at 10uM for `Cc1ccc(OCC(=O)NNC(=O)C2CCN(c3ncccn3)CC2)cc1`
-- reply -18.6

-- ask // lookup hERG current change (%, negative = inhibition) at 10uM for COc1cccc(CNC(=O)CCC2CCCN(C(=O)C3CCOCC3)C2)c1 (centres unmarked)
-- reply 1.51

-- ask // lookup hERG current change (%, negative = inhibition) at 10uM for `NC(=O)c1ccccc1OCC(=O)Nc1ccc2c(c1)CCC2`
-- reply 5.27

-- ask // lookup hERG current change (%, negative = inhibition) at 10uM for `Cc1ccc(NC2=Nc3ccccc3CC2)cc1`
-- reply -18.2

-- ask // lookup hERG current change (%, negative = inhibition) at 10uM for `COc1ccc(C)cc1NC(=O)CN1CCN(S(=O)(=O)c2ccc(Br)cc2)CC1`
-- reply -30.5

-- ask // lookup hERG current change (%, negative = inhibition) at 10uM for CN1/C(=C\C(=O)COC(=O)C2COc3ccccc3O2)C(C)(C)c2ccccc21 (centres unmarked)
-- reply 9.13
